Source: patent US20250154277A1

Target: T1, human 5T4-His protein (human, UniProt Q13641 32-355)
T1 construct: also called recombinant 5T4 protein (human 5T4-his tag); human 5T4 protein; not shown: His tag
T1 sequence (looked up): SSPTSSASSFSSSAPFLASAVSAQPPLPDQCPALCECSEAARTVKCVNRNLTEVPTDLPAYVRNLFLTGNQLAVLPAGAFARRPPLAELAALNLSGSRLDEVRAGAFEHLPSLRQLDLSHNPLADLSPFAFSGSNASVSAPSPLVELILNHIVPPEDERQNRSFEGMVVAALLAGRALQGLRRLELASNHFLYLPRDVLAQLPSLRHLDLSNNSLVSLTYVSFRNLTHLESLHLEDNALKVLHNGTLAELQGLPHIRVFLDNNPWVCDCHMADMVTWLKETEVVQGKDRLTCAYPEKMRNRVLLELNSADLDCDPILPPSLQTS
Test: ELISA, coated 5T4-His
Measured quantity: pEC50
Give bare numbers, as −log10 of the molar value.

| Binder | pEC50 |
| --- | --- |
| 393E9_hVH6_hVL4 (antibody, V domains shown, humanized) VH: EVQLVESGGGLVQPGGSLRLSCAASGFTFTDYYMSWVRQAPGKGLEWVGFIRNKGNGYTTENSASVKGRFTISRDNAKSSLYLQMNSLRAEDTAVYYCARYRGNPHYAMDYWGQGTLVTVSS VL: DIVLTQSPLSLPVTPGEPASISCRASESVEFYGTSFLQWYLQKPGQSPQLLIYGASNVESGVPDRFSGSGSGTDFTLKISRVEAEDIGVYFCQQSRKVPSTFGGGTKVEIK | 9.85 |
| 393E9_hVH6_hVL5 (antibody, V domains shown, humanized) VH: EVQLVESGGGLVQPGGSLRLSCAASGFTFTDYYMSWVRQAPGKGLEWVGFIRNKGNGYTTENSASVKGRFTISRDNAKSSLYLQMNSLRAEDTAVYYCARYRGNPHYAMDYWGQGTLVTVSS VL: EIVLTQSPGTLSLSPGERATLSCRASESVEFYGTSFLQWYQQKPGQAPRLLIYGASNVESGIPDRFSGSGSGTDFTLTISRLEPEDIAVYFCQQSRKVPSTFGGGTKVEIK | 9.72 |
| 393E9_hVH4_hVL3 (antibody, V domains shown, humanized) VH: EVQLVESGGGLVQPGGSLRLSCAASGFTFTDYYMSWVRQAPGKGLEWVGFIRNKGNGYTTENSASVKGRFTISRDNSKSSLYLQMNSLKTEDTAVYYCARYRGNPHYAMDYWGQGTLVTVSS VL: DIQLTQSPSSLSASVGDRVTITCRASESVEFYGTSFLQWYQQKPGKAPKLLIYGASNVESGVPSRFSGSGSGTDFTLTISSLQPEDIATYFCQQSRKVPSTFGGGTKVEIK | 9.89 |

Please look at the items below and tell me pEC50 for each one, in order.
1. 393E9_hVH6_hVL2 (antibody, V domains shown, humanized; also called Hu393E9-62) VH: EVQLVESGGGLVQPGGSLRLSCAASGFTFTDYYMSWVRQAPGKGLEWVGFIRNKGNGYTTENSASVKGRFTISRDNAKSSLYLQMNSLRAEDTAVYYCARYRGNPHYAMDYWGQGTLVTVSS VL: EIVLTQSPATLSVSPGERATLSCRASESVEFYGTSFLQWYQQKPGQAPRLLIYGASNVESGIPARFSGSGSGTEFTLTISSLQSEDIAVYFCQQSRKVPSTFGGGTKVEIK
2. 393E9_hVH4_hVL5 (antibody, V domains shown, humanized; also called Hu393E9-45) VH: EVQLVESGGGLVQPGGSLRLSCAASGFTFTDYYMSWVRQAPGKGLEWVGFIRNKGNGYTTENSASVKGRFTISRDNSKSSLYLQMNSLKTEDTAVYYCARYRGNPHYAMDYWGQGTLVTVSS VL: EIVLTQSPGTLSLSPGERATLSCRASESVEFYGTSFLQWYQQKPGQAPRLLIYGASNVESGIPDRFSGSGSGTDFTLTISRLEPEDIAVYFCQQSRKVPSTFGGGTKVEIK

1. 9.96
2. 9.66
